Test: Half life in overnight fasted C57BL/6N mouse at 1 mg/kg, ip
Assay type: ADME, organism-based
Set-up: dose 1 mg/kg, route intraperitoneal
Settings: in vivo
half-life values, listed per item
# value in min; strip the unit string

>>> meas_value("CC(C)C[C@@H]1NC(=O)[C@@H](CC(C)C)NC(=O)[C@H](Cc2ccc(O)cc2)NC(=O)[C@H](CO)NC(=O)[C@H](Cc2c[nH]c3ccccc23)NC(=O)[C@H](Cc2cnc[nH]2)NC(=O)[C@@H]2CCCN2C(=O)C[C@H](C)NC(=O)[C@@H]2CCCN2C(=O)[C@H](CCCNC(=N)N)NC1=O")
30

Proceeding to the next compound to report its half-life.
What half-life value was documented for this compound, CCNC(=O)[C@@H]1CCCN1C(=O)[C@H](CCCNC(=N)N)NC(=O)[C@H](CC(C)C)NC(=O)[C@@H](CC(C)C)NC(=O)[C@H](Cc1ccc(O)cc1)NC(=O)[C@H](CO)NC(=O)[C@H](Cc1c[nH]c2ccccc12)NC(=O)[C@H](Cc1c[nH]cn1)NC(=O)[C@@H]1CCC(=O)N1 [LEUPROLIDE] ?
42
